Origin of values: ChEMBL document CHEMBL3098031

Experiment: Displacement of [3H]DTG from guinea pig brain sigma2 receptor after 120 mins by scintillation counting analysis in presence of SKF10,047
Design: species or system Cavia porcellus
Ki for assorted compounds
Express the reported value numerically, then name its unit.

{"Compound": "COc1ccc2[nH]cc(C(=O)CN3CCC(Cc4ccccc4)CC3)c2c1", "Ki": "0.01 µM"}
{"Compound": "COc1ccc2[nH]cc(C(=O)CN3CCC(O)(c4ccc(Cl)cc4)CC3)c2c1", "Ki": "0.0075 µM"}
{"Compound": "COc1ccc2[nH]cc(C(=O)CN3CCC(c4ccccc4)CC3)c2c1", "Ki": "0.02 µM"}

In: I'd like to know its Ki. The compound in question is COc1ccc2[nH]cc(C(=O)CN3CCC(O)(c4ccccc4)CC3)c2c1
Out: 0.021 µM

In: I'd like to know its Ki. The compound in question is O=C(CN1CCC(O)(c2ccc(Cl)cc2)CC1)c1c[nH]c2ccc(O)cc12
Out: 0.047 µM
